- Test system: breast line MDA468
- protocol: In vitro cell culture growth assay (MTS), MDA468
- Assay type: cell-based, human
- test.context: Homo sapiens, 72 h, MDA468 cells, three days after drug treatment
Recorded log10 of IC50 for the following molecules
A value of 2 here means IC50 of 100 in µM, since values are log10.

Record O=C(NCCc1ccccc1)Nc1ccc(-c2nc(N3CCOCC3)c3cnn(C4CCN(Cc5ccccc5)CC4)c3n2)cc1 [Compound 259] . Reported log10 of IC50: 1.30

Record `Nc1cccc(-c2nc(N3CCOCC3)c3cnn(C4CCN(C(=O)c5cccnc5)CC4)c3n2)n1` . Reported log10 of IC50: 1.40

Record CNC(=O)Cc1ccc(-c2nc(N3CCOCC3)c3cnn(C4CCN(Cc5ccccc5)CC4)c3n2)cc1 [Compound 616] . Reported log10 of IC50: 1.00

Record `c1ccc(CN2CCC(n3ncc4c(N5CCOCC5)nc(-c5ccn[nH]5)nc43)CC2)cc1` . Reported log10 of IC50: 1.28

Record `CCn1ncc2c(N3CCOCC3)nc(-c3cccc(O)c3)nc21` . Reported log10 of IC50: 0.11

Further cases:
Record CNC(=O)Nc1ccc(-c2nc(N3CCOCC3)c3cnn(C4CCN(C(=O)c5ccc(C)cc5)CC4)c3n2)cc1 [Compound 613] . Reported log10 of IC50: -1.07

Record O=C(Nc1ccc(-c2nc(N3CCOCC3)c3cnn(C4CCN(Cc5ccccc5)CC4)c3n2)cc1)NC1CC1 [Compound 556] . Reported log10 of IC50: 0.02

====

- subject.of.test: PI3K (Homo sapiens, UniProt P42336)
- Sequence (P42336 whole entry): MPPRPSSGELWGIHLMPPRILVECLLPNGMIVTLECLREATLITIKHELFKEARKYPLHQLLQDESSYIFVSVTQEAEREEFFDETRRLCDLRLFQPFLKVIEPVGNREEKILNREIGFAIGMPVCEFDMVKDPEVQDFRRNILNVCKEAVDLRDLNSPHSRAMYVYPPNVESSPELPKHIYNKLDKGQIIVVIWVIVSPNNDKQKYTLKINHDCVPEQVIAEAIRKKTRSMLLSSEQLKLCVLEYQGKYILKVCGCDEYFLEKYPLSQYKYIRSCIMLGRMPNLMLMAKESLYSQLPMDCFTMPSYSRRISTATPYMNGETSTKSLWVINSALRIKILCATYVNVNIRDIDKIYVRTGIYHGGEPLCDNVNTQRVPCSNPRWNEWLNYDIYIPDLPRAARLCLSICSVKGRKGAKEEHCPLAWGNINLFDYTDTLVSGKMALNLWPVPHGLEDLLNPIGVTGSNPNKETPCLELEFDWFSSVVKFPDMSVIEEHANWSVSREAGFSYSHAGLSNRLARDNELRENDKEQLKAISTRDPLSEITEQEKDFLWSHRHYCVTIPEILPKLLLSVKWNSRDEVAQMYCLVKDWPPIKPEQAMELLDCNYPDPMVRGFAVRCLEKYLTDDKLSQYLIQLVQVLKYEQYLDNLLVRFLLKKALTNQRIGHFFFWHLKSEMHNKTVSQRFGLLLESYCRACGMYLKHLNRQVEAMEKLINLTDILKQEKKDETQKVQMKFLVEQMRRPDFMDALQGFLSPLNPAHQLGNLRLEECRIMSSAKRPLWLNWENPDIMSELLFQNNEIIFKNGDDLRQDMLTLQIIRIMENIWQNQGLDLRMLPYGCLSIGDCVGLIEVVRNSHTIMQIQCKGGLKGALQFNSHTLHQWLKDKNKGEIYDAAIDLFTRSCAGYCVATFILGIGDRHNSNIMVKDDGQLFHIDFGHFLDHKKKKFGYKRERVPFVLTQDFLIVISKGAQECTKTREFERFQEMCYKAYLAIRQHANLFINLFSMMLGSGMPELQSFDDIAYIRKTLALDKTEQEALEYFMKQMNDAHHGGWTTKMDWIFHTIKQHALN
- Sequence (P27986 whole entry partner): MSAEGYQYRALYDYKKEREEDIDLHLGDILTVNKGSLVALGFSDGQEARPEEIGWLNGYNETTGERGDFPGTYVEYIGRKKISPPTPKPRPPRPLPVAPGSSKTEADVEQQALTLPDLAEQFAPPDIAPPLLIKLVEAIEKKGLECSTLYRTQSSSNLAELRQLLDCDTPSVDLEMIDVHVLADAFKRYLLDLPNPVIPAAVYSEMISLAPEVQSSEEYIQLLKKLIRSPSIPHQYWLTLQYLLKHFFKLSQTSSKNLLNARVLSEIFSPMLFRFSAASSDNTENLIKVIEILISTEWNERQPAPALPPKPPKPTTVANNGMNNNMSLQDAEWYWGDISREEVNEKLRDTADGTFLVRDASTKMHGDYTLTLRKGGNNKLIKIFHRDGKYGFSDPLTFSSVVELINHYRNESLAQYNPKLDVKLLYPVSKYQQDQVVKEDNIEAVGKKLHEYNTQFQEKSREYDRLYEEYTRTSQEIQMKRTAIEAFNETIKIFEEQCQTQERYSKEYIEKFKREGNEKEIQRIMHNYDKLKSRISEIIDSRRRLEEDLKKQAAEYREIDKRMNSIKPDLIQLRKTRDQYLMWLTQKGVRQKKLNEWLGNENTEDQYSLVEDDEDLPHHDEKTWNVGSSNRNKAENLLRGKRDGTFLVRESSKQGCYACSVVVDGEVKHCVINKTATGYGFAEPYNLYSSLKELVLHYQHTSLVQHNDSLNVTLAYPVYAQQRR
- protocol: Fluorescence polarization assay for PI3K;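 note: PI3K kinase reaction on PIP2 with ATP, 30-60 min, product sensed by GST-GRP with red probe in fluorescence polarization (mP), controls without enzyme and at zero time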
- Format: biochemical
- test.context: PI3Kα; read-out: PI3Kα IC50
result.type: log10(IC50) (log10 of the value in nM)
A value of 2 here means IC50 of 100 in nM, since values are log10.

Record COC(=O)N1CCC(n2ncc3c(N4CCOCC4)nc(-c4ccc5[nH]ccc5c4)nc32)CC1 [Compound 494] . Reported log10(IC50): 3.52

Record O=C(Nc1ccc(-c2nc(N3CCOCC3)c3cnn(C4CCN(Cc5cccnc5)CC4)c3n2)cc1)Nc1cccnc1 [Example 314] . Reported log10(IC50): 1.30

Record CNC(=O)Nc1ccc(-c2nc(N3CCOCC3)c3cnn(C4CCN(C(=O)c5cnccn5)CC4)c3n2)cc1 [Example 422] . Reported log10(IC50): 2.30

Record `CN(C)CCCn1ncc2c(N3CCOCC3)nc(-c3cccc(O)c3)nc21` . Reported log10(IC50): 1.78

Record `c1ccc(CN2CCC(n3ncc4c(N5CCOCC5)nc(-c5ccc6nonc6c5)nc43)CC2)cc1` . Reported log10(IC50): 3.12

Further cases:
Record CN1CCC(C(=O)Nc2ccc(-c3nc(N4CCOCC4)c4cn[nH]c4n3)cc2)CC1 [Compound 530] . Reported log10(IC50): 2.95

Record `CC(C)(C)OC(=O)N1CCC(n2ncc3c(N4CCOCC4)nc(-c4ccc(NC(=O)Nc5ccncc5)cc4)nc32)CC1` . Reported log10(IC50): 1.77

Record COC(=O)N1CCC(n2ncc3c(N4CCOCC4)nc(-c4ccc5[nH]ccc5c4)nc32)CC1 [Example 244] . Reported log10(IC50): 3.52
